Reference for the values: patent US20250368624A1

target: recombinant human PEPD (Homo sapiens (Human)); assay: PEPD substrate assay (Ala-Pro cleavage, L-alanine assay kit); conditions: 50 nM recombinant human PEPD, Ala-Pro 40 μM, 25° C.
Sequence (P12955 whole entry): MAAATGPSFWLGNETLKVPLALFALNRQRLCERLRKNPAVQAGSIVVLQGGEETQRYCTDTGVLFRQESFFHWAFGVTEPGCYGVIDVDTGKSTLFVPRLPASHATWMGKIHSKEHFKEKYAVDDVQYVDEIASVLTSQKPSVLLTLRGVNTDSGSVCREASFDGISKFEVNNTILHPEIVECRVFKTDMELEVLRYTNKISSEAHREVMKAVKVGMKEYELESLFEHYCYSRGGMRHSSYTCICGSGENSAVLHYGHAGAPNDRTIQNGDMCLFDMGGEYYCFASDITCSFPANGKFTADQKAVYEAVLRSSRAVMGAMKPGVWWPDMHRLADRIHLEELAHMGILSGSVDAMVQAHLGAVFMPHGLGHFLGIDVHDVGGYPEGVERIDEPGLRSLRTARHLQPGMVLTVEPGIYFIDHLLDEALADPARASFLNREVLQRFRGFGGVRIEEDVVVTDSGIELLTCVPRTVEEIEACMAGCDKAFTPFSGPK
Quantity measured: IC50

Example results:
Inquiry: For the compound shown here, COC(=O)[C@@H]1C[C@H](O)CN1C(=O)[C@@H](O)[C@H](N)CC(C)C [CQ39] , give the reported IC50.
Reply text: > 100 µM

Inquiry: Repeat with CC(C)C[C@@H](N)[C@H](O)C(=O)N1CCCC1 [CQ76]
Reply text: > 100 µM

Attention now turns to another entry.
Inquiry: What value of IC50 has been reported for the following compound? CC(C)C[C@@H](N)[C@H](O)C(=O)N1CCC[C@H]1CNS(C)(=O)=O [CQ53]
Reply text: > 100 µM
